Origin of the recorded values: paper PMC11799985

target: TbSir2rp1 (Trypanosoma brucei brucei, UniProt Q57V41); construct: The TbSir2rp1 gene was cloned into the pET24(+) expression plasmid (Novagen); His tag; made in house; host or cells: Escherichia coli BL21-Codon Plus (DE3)-RIL; assay: biochemical; settings: read-out: % Inhibition TbSir2rp1, Table S2, complete fragment library, single concentration of 500 μM
Observed Property: inhibition at 500 µM (%)

>>> df
                                    molecule     observed_property  measure_unit  test_result
 0                Cn1c(=O)c2[nH]cnc2n(C)c1=O  inhibition at 500 µM             %         -2.1
 1                           NNC(=O)c1ccncc1  inhibition at 500 µM             %         -4.9
 2                CCN(CC)CCOC(=O)c1ccc(N)cc1  inhibition at 500 µM             %           50
 3    O=C1C(O)=C(Nc2ccc(F)cc2)C(=O)c2ccccc21  inhibition at 500 µM             %           71
 4                   CC(=O)n1ncc2cc(Cl)ncc21  inhibition at 500 µM             %           19
 5            CCC1(c2ccccc2)C(=O)NC(=O)NC1=O  inhibition at 500 µM             %          2.7
 6                    Cc1ccc(S(=O)(=O)NN)cc1  inhibition at 500 µM             %           53
 7               NC(N)=NS(=O)(=O)c1ccc(N)cc1  inhibition at 500 µM             %          1.8
 8                        COc1cc2cn[nH]c2cn1  inhibition at 500 µM             %           56
 9         CC1(C)CCC2=C(O1)C(=O)c1ccccc1C2=O  inhibition at 500 µM             %           33
10            CS(=O)(=O)Nc1cccc(-c2ccccc2)c1  inhibition at 500 µM             %           35
11  O=[N+]([O-])c1cccc(C2=NCCO2)c1 [O=[N+](C1=CC=CC(C2=NCCO2)=C1)[O-]]  inhibition at 500 µM             %           44
12         O=C1NC(=O)C(c2ccccc2)(c2ccccc2)N1  inhibition at 500 µM             %           52
13                 O=C(NNc1ccccc1)NNc1ccccc1  inhibition at 500 µM             %           48

---

target: TbSir2rp1 (Trypanosoma brucei brucei, UniProt Q57V41); construct: The TbSir2rp1 gene was cloned into the pET24(+) expression plasmid (Novagen); His tag; made in house; host or cells: Escherichia coli BL21-Codon Plus (DE3)-RIL; experiment: biochemical; settings: LE = –R·T·ln(IC50)/HAC, from TbSir2rp1 IC50
Each record here notes measured ligand efficiency (LE).
Observed Property: ligand efficiency (LE)

                                   molecule       observed_property  test_result
0                       O=c1ccc2ccccc2[nH]1  ligand efficiency (LE)         0.41
1         Cc1ccc(S(=O)(=O)N/N=C/c2cccs2)cc1  ligand efficiency (LE)         0.31
2    CN(C)c1ccc(/C=N/c2nnc(-c3ccccc3)o2)cc1  ligand efficiency (LE)         0.25
3                            Sc1nc2ccccc2s1  ligand efficiency (LE)         0.54
4  COC(=O)Nc1nc2ccc(C(=O)c3ccccc3)cc2[nH]1 [mebendazole, reference compound]  ligand efficiency (LE)         0.24
5                  Nc1ccc(C(=O)c2ccccc2)cc1  ligand efficiency (LE)         0.37
6             CCc1[nH][nH]c(=O)c1-c1cccnc1O  ligand efficiency (LE)         0.37
7                Cc1c(O)c2ccccc2c2nc(N)sc12  ligand efficiency (LE)         0.41

---

Biological target: TbSir2rp1 (Trypanosoma brucei brucei)
Construct: The TbSir2rp1 gene was cloned into the pET24(+) expression plasmid (Novagen); His tag; made in house; host or cells: Escherichia coli BL21-Codon Plus (DE3)-RIL
Assay: biochemical
Conditions: concentration–response curve against TbSir2rp1
Protocol: The acetylated peptide corresponds to the sequence Abz-Gly-Pro-acetylLys-SerGln–EDDnp, where Abz is ortho-aminobenzoic acid and EDDnp is N-[2,4-dinitrophenyl]ethylenediamine. To halt the deacetylation reaction, 4 mM nicotinamide was used. For each pair of wells in the 96-well plate, 0.2 mg/mL of trypsin was added to only one well to hydrolyze the acetylated peptide, enabling fluorescence emission. […]
Observed Property: Hill coefficient (nH)

>>> print(df.to_string())
                       smiles_record  test_result
0  Cc1ccc(S(=O)(=O)N/N=C/c2cccs2)cc1         0.77
1         Cc1c(O)c2ccccc2c2nc(N)sc12         1.22
2                O=c1ccc2ccccc2[nH]1         1.19

---

target: TbSir2rp1 (Trypanosoma brucei brucei); construct: The TbSir2rp1 gene was cloned into the pET24(+) expression plasmid (Novagen); His tag; made in house; host or cells: Escherichia coli BL21-Codon Plus (DE3)-RIL; experiment: biochemical; conditions: read-out: % Inhibition TbSir2rp1 at 500 μM, Table 1; fragment 500 μM, triplicate, mean ± SD
Observed Property: inhibition at 500 µM

                             smiles_record  test_result
 0    Cc1ccc(S(=O)(=O)N(C)/N=C/c2cccs2)cc1        64.8%
 1           CCc1[nH][nH]c(=O)c1-c1cccnc1O        88.3%
 2              Cc1c(O)c2ccccc2c2nc(N)sc12          99%
 3     O=C1C(O)=C(Nc2ccccc2)C(=O)c2ccccc21        95.3%
 4                        O=C1Cc2cnccc2CN1        55.5%
 5  CN(C)c1ccc(/C=N/c2nnc(-c3ccccc3)o2)cc1        78.4%
 6     O=C(/C=C/c1ccccc1Cl)c1ccc2c(c1)OCO2         102%
 7                      Clc1cc2cn[nH]c2cn1        60.6%
 8       Cc1ccc(S(=O)(=O)N/N=C/c2cccs2)cc1        83.7%
 9                     N=C(N)N/N=C/c1cccs1        55.7%
10                     O=c1ccc2ccccc2[nH]1        59.7%

---

Target: TbSir2rp1 (Trypanosoma brucei brucei, UniProt Q57V41)
Construct: The TbSir2rp1 gene was cloned into the pET24(+) expression plasmid (Novagen); His tag; made in house; host or cells: Escherichia coli BL21-Codon Plus (DE3)-RIL
Sequence (Q57V41 1-351): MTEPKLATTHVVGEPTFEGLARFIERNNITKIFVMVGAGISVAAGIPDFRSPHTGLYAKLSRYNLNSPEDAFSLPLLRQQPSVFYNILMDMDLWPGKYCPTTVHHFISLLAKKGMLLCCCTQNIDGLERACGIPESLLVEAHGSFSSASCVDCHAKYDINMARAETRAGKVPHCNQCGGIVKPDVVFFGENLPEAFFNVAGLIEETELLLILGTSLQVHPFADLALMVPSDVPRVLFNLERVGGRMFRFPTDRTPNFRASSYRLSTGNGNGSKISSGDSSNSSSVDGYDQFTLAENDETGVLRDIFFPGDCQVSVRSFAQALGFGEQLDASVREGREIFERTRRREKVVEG
Experiment: biochemical
Conditions: read-out: % Inhibition TbSir2rp1, Table S2, complete fragment library, single concentration of 500 μM
Just so you know, the groups by inhibition at 500 µM go like this: bucket 1: < 20%; bucket 2: ≥ 20% and < 40%; bucket 3: ≥ 40%

>>> df
                                   molecule     label
0                  CCC1(CC)C(=O)NC(=O)NC1=O  bucket 1
1       O=C(/C=C/c1ccccc1Cl)c1ccc2c(c1)OCO2  bucket 3
2           CCn1cc(C(=O)O)c(=O)c2ccc(C)nc21  bucket 1
3                          NNC(=O)Cc1cccnc1  bucket 1
4  Nc1cccc([N+](=O)[O-])c1 [NC1=CC=CC([N+]([O-])=O)=C1]  bucket 2
5      Cc1ccc(S(=O)(=O)N(C)/N=C/c2cccs2)cc1  bucket 3
6                Cn1cnc2c1c(=O)[nH]c(=O)n2C  bucket 1
7                   NNS(=O)(=O)c1ccc(Cl)cc1  bucket 2
8                         O=C1Nc2ccccc2C1=O  bucket 3
9              CCOC(=O)c1c(C)oc2ncc(Br)cc12  bucket 1
